Test: Cytotoxicity against human NCM460 cells assessed as reduction in cell viability measured after 24 hrs by MTT assay
Assay type: cell-based
RECORDED METRIC: CC50 at 24 h (µM)
// return numeric value only (unit: µM, not printed)

CC1(C)[C@H]2CC[C@]1(C)N(Cc1cn(-c3cccc(Cl)c3)nn1)C(=O)C2: 8.41

[in] Given `CC1(C)[C@H]2CC[C@]1(C)N(Cc1cn(-c3ccccc3Cl)nn1)C(=O)C2` , respond with its CC50 at 24 h.
[out] 10.8

[in] Supply reported CC50 at 24 h belonging to this molecule: `CC1(C)[C@H]2CC[C@]1(C)N(Cc1cn(-c3cccc(Br)c3)nn1)C(=O)C2`
[out] 14.6

[in] In one line, give reported CC50 at 24 h of the entry `CC1(C)[C@H]2CC[C@]1(C)N(Cc1cn(-c3ccc(C#N)cc3)nn1)C(=O)C2` .
[out] 8.14

[in] Item `CC1(C)[C@H]2CC[C@]1(C)N(Cc1cn(-c3ccccc3F)nn1)C(=O)C2` : provide CC50 at 24 h
[out] 5.26

[in] Return reported CC50 at 24 h. Input molecule: `CC1(C)[C@H]2CC[C@]1(C)N(Cc1cn(-c3ccccc3C#N)nn1)C(=O)C2`
[out] 37.5

[in] Quick one: give measured CC50 at 24 h for `CC1(C)[C@H]2CC[C@]1(C)N(Cc1cn(-c3ccccc3)nn1)C(=O)C2`
[out] 19.6

[in] For `C=CCNC1=C2C[C@@H](C)C[C@H](OC)[C@H](O)[C@@H](C)/C=C(\C)[C@H](OC(N)=O)[C@@H](OC)/C=C\C=C(/C)C(=O)NC(=CC1=O)C2=O` , write its CC50 at 24 h.
[out] 14.2
